Target: P. falciparum apicoplast DNA polymerase (Pf-apPOL) (Plasmodium falciparum)
Sequence (Q8ILY1 entry or part of it): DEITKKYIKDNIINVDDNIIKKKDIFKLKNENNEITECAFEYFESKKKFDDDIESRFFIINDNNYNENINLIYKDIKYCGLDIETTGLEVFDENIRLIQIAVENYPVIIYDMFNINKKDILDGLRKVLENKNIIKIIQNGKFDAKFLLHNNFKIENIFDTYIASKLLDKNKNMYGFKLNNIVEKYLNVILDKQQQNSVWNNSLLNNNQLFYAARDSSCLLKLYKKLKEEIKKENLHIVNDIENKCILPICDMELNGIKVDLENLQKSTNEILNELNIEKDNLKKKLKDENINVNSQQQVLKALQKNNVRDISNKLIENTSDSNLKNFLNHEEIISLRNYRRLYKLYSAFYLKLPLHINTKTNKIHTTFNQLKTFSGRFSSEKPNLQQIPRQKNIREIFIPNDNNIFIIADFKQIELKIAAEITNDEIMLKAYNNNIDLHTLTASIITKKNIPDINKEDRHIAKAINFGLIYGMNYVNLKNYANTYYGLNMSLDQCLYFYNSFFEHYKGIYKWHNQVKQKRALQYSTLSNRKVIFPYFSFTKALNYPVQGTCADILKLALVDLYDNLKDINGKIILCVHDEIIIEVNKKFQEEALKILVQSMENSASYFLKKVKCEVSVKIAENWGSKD
Assay: Fluorescence-based high-throughput DNA polymerase assay (molecular beacon), primary screen and dose-response
Assay type: biochemical
Conditions: primary screen value of the 186 hits; unit not given; 90 min, 10 µM
Mark 1 for DNA Pol under 60, 0 if at or over.

I wonder whether O=C(O)c1ccc(-c2nc3cc(-c4ccc5nc(-c6ccc(C(=O)O)cc6)[nH]c5c4)ccc3[nH]2)cc1 [Molecule 1] has DNA Pol below 60. Can you tell?
0

I wonder whether O=C(CSc1nnc(-c2ccncc2)[nH]1)c1ccc(O)c(O)c1 [Molecule 89] has DNA Pol below 60. Can you tell?
0

I wonder whether Cc1cc(C)c2c(O)nc(SCC(=O)c3ccc(O)c(O)c3)nc2n1 [Molecule 88] has DNA Pol below 60. Can you tell?
0

I wonder whether O=C(Cn1ccc2c(=O)[nH]ccc21)Nc1ccc(Cl)cc1 [Molecule 36, O=C(Cn1ccc2c1cc[nH]c2=O)Nc1ccc(cc1)Cl] has DNA Pol below 60. Can you tell?
1

I wonder whether O=C(Nc1c2c(nn1-c1ccccc1)CSC2)c1ccco1 [KU0055213] has DNA Pol below 60. Can you tell?
1

I wonder whether O=C(Cc1cccs1)N1CCN(c2nc(CN3CCOCC3)cs2)CC1 [Molecule 35] has DNA Pol below 60. Can you tell?
1

I wonder whether Cc1cc(C)c(O)c(/N=C/c2cc([N+](=O)[O-])cc(Br)c2O)c1 [KU0046272] has DNA Pol below 60. Can you tell?
1

I wonder whether Oc1cccnc1/N=C/c1cc(I)cc(I)c1O [KU0073720] has DNA Pol below 60. Can you tell?
1

I wonder whether NS(=O)(=O)c1ccc(NC(=O)c2ccc(N3C(=O)CCC3=O)cc2)cc1 [KU0025331] has DNA Pol below 60. Can you tell?
1

I wonder whether CCN1C(=O)C(=Cc2cccc(OC)c2O)SC1=S [Molecule 78, CCN1C(=S)SC(=Cc2cccc(c2O)OC)C1=O] has DNA Pol below 60. Can you tell?
1

I wonder whether COc1ccc(C=C2Oc3c(ccc4c3CN(c3ccc5c(c3)OCO5)CO4)C2=O)cc1OC [KU0199426] has DNA Pol below 60. Can you tell?
1

I wonder whether O=[N+]([O-])/C=C/c1ccc(-c2ccc(Br)cc2)o1 [Molecule 31, O=N(=O)/C=C/c1ccc(o1)c1ccc(cc1)Br] has DNA Pol below 60. Can you tell?
1

I wonder whether CC(=O)Nc1cc(C(=O)NC(C)C)c2ccc(C)nc2c1 [KU0206312] has DNA Pol below 60. Can you tell?
1

I wonder whether COc1ccc(C)cc1NC(=O)Cn1ccc2c(=O)[nH]ccc21 [Molecule 15, COc1ccc(cc1NC(=O)Cn1ccc2c1cc[nH]c2=O)C] has DNA Pol below 60. Can you tell?
0

I wonder whether CCCCCCCCCCCCCCCCCC(=O)CCN(C)C [KU0271928] has DNA Pol below 60. Can you tell?
1

I wonder whether Cc1cccc(CC(=O)N2CCc3c(nc4cc(-c5ccccc5)[nH]n4c3=O)C2)c1 [Molecule 12] has DNA Pol below 60. Can you tell?
1
